Each entry below carries its recorded pKi.
experiment: Inhibition of porcine kidney leucyl aminopeptidase; design: species or system Sus scrofa
// field semantics: pKi = negative decimal log of concentration (mol/L)

// below: answered compounds
compound: NC(CCCC1CCCCC1)P(=O)(O)O (racemic)
experimental result: 5.02
--
compound: NC(CCCCc1ccccc1)P(=O)(O)O (racemic)
experimental result: 6.48
--
compound: NC(CCC1CCCCC1)P(=O)(O)O (racemic)
experimental result: 6.68
--
compound: NC(CC1CCCCC1)P(=O)(O)O (racemic)
experimental result: 6.12

*Q* Tell us which pKi value is on record for N[C@@H](C1CCCCC1)P(=O)(O)O
*A* 5.10

*Q* Tell us which pKi value is on record for N[C@H](C1CCCCC1)P(=O)(O)O
*A* 5.16

*Q* Tell us which pKi value is on record for NC(CCc1ccccc1)P(=O)(O)O (racemic)
*A* 6.85
